test method notes: Stability of lipid nanoparticles at 25° C., DLS particle size and PDI
Type: physicochemical
measurement setup: week 2, storage at 25° C.
As shown below, each of these compounds has a reported PDI value.

{"compound": "CCCCCCCCCOC(=O)CCCCCCCN(CCO)CCCCCCCC(=O)OC(CCCCCCCC)CCCCCCCC [SM102, reference compound]", "PDI": 0.21}
{"compound": "CCCCCCCCCCCOC(=O)CCCCCN(CCCCCCCC(=O)OC(CCCCCCCC)CCCCCCCC)C1CCC(O)C1 (stereo not shown)", "PDI": 0.06}
{"compound": "CCCCCCCCCCCOC(=O)CCCCCN(CCCCCCCC(=O)OC(CCCCCCCC)CCCCCCCC)C1CCCC(O)C1 (stereo not shown)", "PDI": 0.06}
{"compound": "CCCCCCCCCOC(=O)CCCCCCCN(CCCCCCOC(=O)C(CCCCCC)CCCCCCCC)C1CCCC(O)C1 (stereo not shown)", "PDI": 0.06}

###

Listing of recorded Fluorescence intensity (expression intensity of Fluc mRNA) by entry.
Test system: Fluc mRNA
test method notes: In vivo delivery of luciferase mRNA (Fluc mRNA) by lipid nanoparticles, living imaging
Design: species or system BALB/c mice
measurement setup: intramuscular injection, formulation method 2, 0.5 mg/kg, after 12 hours, total fluorescence
assay metric: Fluorescence intensity (expression intensity of Fluc mRNA) (E + 06)

{"molecule": "CCCCCCCCC(CCCCCC)OC(=O)CCCCCN(CCCCCC(=O)OC(CCCCCC)CCCCCCCC)C1CCCC(O)C1 (centres unmarked)", "tested system": "Fluc mRNA", "result": 9.2}
{"molecule": "CCCCCCCCCOC(=O)CCCCCCCN(CCCCCCCC(=O)OC(CCCCCCCC)CCCCCCCC)C1CCCC(F)C1 (centres unmarked)", "tested system": "Fluc mRNA", "result": 7.8}
{"molecule": "CCCCCCCCC(CCCCCC)C(=O)OCCCCCCN(CCCCCCOC(=O)C(CCCCCC)CCCCCCCC)C1CCCC(O)C1 (centres unmarked)", "tested system": "Fluc mRNA", "result": 8.2}
{"molecule": "CCCCCCCCCCCOC(=O)CCCCCCCN(CCCCCCCC(=O)OC(CCCCCCCC)CCCCCCCC)C1CCCC(C#N)C1 (centres unmarked)", "tested system": "Fluc mRNA", "result": 6.2}

The origin of these recorded values is patent US20260015311A1.
